assayedTarget: Cytosol aminopeptidase [33-68,L62W] (Sus scrofa, UniProt P28839, L62W)
Construct: 33-68
Sequence (P28839 33-68 L62W): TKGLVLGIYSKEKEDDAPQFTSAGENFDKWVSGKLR
assayInfo: Kinetic Inhibition Assay
measurementContext: pH 8.4; 25 °C
Field: Ki. Provide a value for each of the compounds that follow.
Give the value, in units of µM, as a plain number.

So what does the record say about Ki for "CSCC[C@H](N)[P@H](=O)O" ?
22

So what does the record say about Ki for CCCCC(N)P(=O)(O)O[C@@H](C)C(=O)OC (stereo partly drawn) [Nle-ψ[P(O)(OH)O]-L-AlaOMe (7)] ?
219

So what does the record say about Ki for "CCCC[C@H](N)P(=O)(O)O" ?
58

So what does the record say about Ki for CSCCC(N)P(=O)(O)CC(C)C(=O)O (configuration not stated) [Met-ψ[P(O)(OH)CH2]-Ala (5)] ?
3.64

So what does the record say about Ki for CCCCC(N)[PH](=O)O (configuration not stated) ?
73.9

So what does the record say about Ki for CCCCC(N)P(=O)(O)O[C@@H](C)C(=O)O (stereo partly drawn) [Nle-ψ[P(O)(OH)O]-L-Ala (6)] ?
269

So what does the record say about Ki for "CSCC[C@H](N)P(=O)(O)O" ?
22.6
